system: A498 renal; experiment: NCI-60 one-dose screen, 48 h; settings: 10 µM unless noted
About 83,000 compounds went through this panel and 20% of them were active in at least one assay; those are over-represented in the sample as a whole. Activity calls are given as the source filed them. Rule for the calls: active = growth percent below 10; inactive = the rest.
Response enum: yes (1) for active, no (0) for inactive

| Compound | Group Label |
| --- | --- |
| COC(=O)c1ccc2c(c1)[n+](=O)c(C(C)=O)c(C(F)(F)F)n2[O-] | yes (1) |
| CCOC(=O)CC1CSC(N/N=C/c2ccc(-n3cccn3)cc2)=N1 (stereo not drawn) | no (0) |

Moving on to the next compound.
State the result this test recorded for `C#Cc1cccc(NC(=O)Nc2cccc(NC(=O)CCl)c2)c1` . no (0)
